# Tested on: ACHN
# Protocol Description: NCI screening panel, ACHN (Renal Cancer)
# Assay type: cell-based, human
Parameter: Log10LC50. Scope: all listed entries.

Worked examples follow.
[[record]]
smiles_data = "CC(C)C[C@H](NC(=O)[C@H](COC(F)F)NC(=O)[C@H](COC(F)F)NC(=O)[C@H](CCc1ccccc1)NC(=O)CN1CCOCC1)C(=O)[C@@]1(C)CO1"
result = ">−4.00"

[[record]]
smiles_data = "CC(C)C[C@H](NC(=O)[C@H](COC(F)F)NC(=O)CN1CCOCC1)C(=O)N[C@@H](COC(F)F)C(=O)N[C@@H](Cc1ccccc1)C(=O)[C@@]1(C)CO1"
result = ">−4.00"


// next entry
# input What does the data say about its Log10LC50? Entry: "CC(C)C[C@H](NC(=O)[C@H](COC(F)F)NC(=O)CN1CCOCC1)C(=O)N[C@@H](COC(F)F)C(=O)N[C@@H](CC(C)C)C(=O)[C@@]1(C)CO1"
# output >−4.00

---

# Test system: MDA-MB-435
# Protocol Description: NCI screening panel, MDA-MB-435 (Melanoma)
# Format: cell-based, human
Observed Property: Log10GI50
Number only, no unit.

[[record]]
smiles_data = "CC(C)C[C@H](NC(=O)[C@H](COC(F)F)NC(=O)[C@H](COC(F)F)NC(=O)[C@H](CCc1ccccc1)NC(=O)CN1CCOCC1)C(=O)[C@@]1(C)CO1"
result = "−7.83"

[[record]]
smiles_data = "CC(C)C[C@H](NC(=O)[C@H](COC(F)F)NC(=O)[C@H](COC(F)F)NC(=O)[C@H](COC(F)F)NC(=O)CN1CCOCC1)C(=O)[C@@]1(C)CO1"
result = "−7.42"

[[record]]
smiles_data = "CC(C)C[C@H](NC(=O)[C@H](COC(F)F)NC(=O)CN1CCOCC1)C(=O)N[C@@H](COC(F)F)C(=O)N[C@@H](Cc1ccccc1)C(=O)[C@@]1(C)CO1"
result = "−7.79"

[[record]]
smiles_data = "CC(C)C[C@H](NC(=O)[C@H](COC(F)F)NC(=O)CN1CCOCC1)C(=O)N[C@@H](COC(F)F)C(=O)N[C@@H](CC(C)C)C(=O)[C@@]1(C)CO1"
result = "−7.78"

[[record]]
smiles_data = "CC(C)C[C@H](NC(=O)[C@H](COC(F)F)NC(=O)CN1CCOCC1)C(=O)N[C@@H](Cc1ccccc1)C(=O)N[C@@H](CC(C)C)C(=O)[C@@]1(C)CO1"
result = "−7.99"


# evaluate next
# input So what does the record say about Log10GI50 for "CC(C)C[C@H](NC(=O)[C@H](Cc1ccccc1)NC(=O)[C@H](COC(F)F)NC(=O)[C@H](COC(F)F)NC(=O)CN1CCOCC1)C(=O)[C@@]1(C)CO1" ?
# output −7.90

---

# System: HT29
# Protocol Description: NCI screening panel, HT29 (Colon Cancer)
# Format: cell-based, human
Observed Property: Log10TGI50
Lab note: record the figure alone, no unit after it.

[[record]]
compound = "CC(C)C[C@H](NC(=O)[C@H](COC(F)F)NC(=O)CN1CCOCC1)C(=O)N[C@@H](Cc1ccccc1)C(=O)N[C@@H](CC(C)C)C(=O)[C@@]1(C)CO1 [Example 2]"
result = "−7.04"

[[record]]
compound = "CC(C)C[C@H](NC(=O)[C@H](Cc1ccccc1)NC(=O)[C@H](COC(F)F)NC(=O)[C@H](COC(F)F)NC(=O)CN1CCOCC1)C(=O)[C@@]1(C)CO1 [Example 11]"
result = "−5.91"


# input Please state recorded Log10TGI50 (tested on HT29) of CC(C)C[C@H](NC(=O)[C@H](COC(F)F)NC(=O)[C@H](COC(F)F)NC(=O)[C@H](CCc1ccccc1)NC(=O)CN1CCOCC1)C(=O)[C@@]1(C)CO1 [Example 7]
# output −4.93

# input Find the measured Log10TGI50: item CC(C)C[C@H](NC(=O)[C@H](COC(F)F)NC(=O)[C@H](COC(F)F)NC(=O)[C@H](COC(F)F)NC(=O)CN1CCOCC1)C(=O)[C@@]1(C)CO1 [Example 17] , target or system HT29.
# output −6.28

# input Param readout= Log10TGI50; system= HT29; entry= CC(C)C[C@H](NC(=O)[C@H](COC(F)F)NC(=O)CN1CCOCC1)C(=O)N[C@@H](COC(F)F)C(=O)N[C@@H](CC(C)C)C(=O)[C@@]1(C)CO1 [Example 1] ; returns value.
# output −4.15

# input Log10TGI50 of CC(C)C[C@H](NC(=O)[C@H](COC(F)F)NC(=O)CN1CCOCC1)C(=O)N[C@@H](Cc1ccccc1)C(=O)N[C@@H](Cc1ccccc1)C(=O)[C@@]1(C)CO1 [Example 3] on HT29?
# output −6.25

# input // fetch HT29 Log10TGI50 for CC(C)C[C@H](NC(=O)[C@H](COC(F)F)NC(=O)CN1CCOCC1)C(=O)N[C@@H](COC(F)F)C(=O)N[C@@H](Cc1ccccc1)C(=O)[C@@]1(C)CO1 [Example 4]
# output −5.63
